Listed here are compounds together with their documented activity at 10 µM.
Target: Drosophila OR85b (Drosophila melanogaster, UniProt Q9VHQ7)
Construct: expressed in transfected cells
Sequence (Q9VHQ7 1-390): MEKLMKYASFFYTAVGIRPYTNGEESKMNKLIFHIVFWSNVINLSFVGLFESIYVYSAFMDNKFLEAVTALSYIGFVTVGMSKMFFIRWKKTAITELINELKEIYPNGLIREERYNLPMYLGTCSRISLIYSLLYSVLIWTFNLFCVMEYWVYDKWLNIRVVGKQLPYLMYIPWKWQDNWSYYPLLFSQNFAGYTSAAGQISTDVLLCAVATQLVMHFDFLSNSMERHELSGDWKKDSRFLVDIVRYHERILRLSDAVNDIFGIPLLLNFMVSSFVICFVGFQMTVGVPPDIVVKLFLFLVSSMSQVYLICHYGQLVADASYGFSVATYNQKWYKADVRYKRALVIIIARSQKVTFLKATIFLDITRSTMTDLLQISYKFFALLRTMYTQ
Sequence (Q9VNB5 1-486 partner): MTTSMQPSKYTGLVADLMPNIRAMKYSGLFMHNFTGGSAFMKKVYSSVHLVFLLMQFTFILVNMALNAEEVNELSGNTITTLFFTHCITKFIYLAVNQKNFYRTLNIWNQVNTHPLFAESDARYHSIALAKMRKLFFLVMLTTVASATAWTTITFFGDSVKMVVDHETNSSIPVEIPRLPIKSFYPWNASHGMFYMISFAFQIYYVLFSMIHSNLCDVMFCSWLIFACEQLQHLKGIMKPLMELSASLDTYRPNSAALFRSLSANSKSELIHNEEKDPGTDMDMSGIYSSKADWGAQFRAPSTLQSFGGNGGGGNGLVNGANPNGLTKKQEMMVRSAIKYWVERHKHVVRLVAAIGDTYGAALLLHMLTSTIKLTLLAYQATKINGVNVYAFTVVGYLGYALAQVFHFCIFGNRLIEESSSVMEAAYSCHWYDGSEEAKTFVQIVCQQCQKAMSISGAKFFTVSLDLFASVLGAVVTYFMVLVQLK
Assay: cell-based
Set-up: GCaMP6 calcium fluorescence in stable HEK293 OR+ORCO lines; peak dF normalised to 50 uM VUAA1 (=1)
Conditions: HEK293; relative to 50 uM VUAA1 response; below 0.05 set to 0; read-out: % activation
Give just the numeric value; % need not be written.

For orientation, consider the following solved cases.
CCCCCCCCCCCCCC = 8.44
C=C1[C@H]2CC[C@@H]3[C@H]2C(C)(C)CCC[C@]13C [(+)-longifolene] = 10.9
C=C(C)C1CCC2(C)OC2C1 (single isomer, unassigned; (+)) [(+)-limonene oxide] = 0
OCCc1ccccc1 = 7.58
C=C1CC[C@@]23C[C@@H]1C(C)(C)[C@@H]2CC[C@H]3C [(+)-beta-cedrene] = 0

// activity at 10 µM lookup, compound = Cc1ccc(C)cc1 , result: 15.2

// activity at 10 µM lookup, compound = Cc1ccc(C(C)C)cc1 , result: 11.7

---

Target: Drosophila OR49b (Drosophila melanogaster, UniProt Q9V6H2)
Construct: expressed in transfected cells
Sequence (Q9V6H2 whole entry, one chain of several): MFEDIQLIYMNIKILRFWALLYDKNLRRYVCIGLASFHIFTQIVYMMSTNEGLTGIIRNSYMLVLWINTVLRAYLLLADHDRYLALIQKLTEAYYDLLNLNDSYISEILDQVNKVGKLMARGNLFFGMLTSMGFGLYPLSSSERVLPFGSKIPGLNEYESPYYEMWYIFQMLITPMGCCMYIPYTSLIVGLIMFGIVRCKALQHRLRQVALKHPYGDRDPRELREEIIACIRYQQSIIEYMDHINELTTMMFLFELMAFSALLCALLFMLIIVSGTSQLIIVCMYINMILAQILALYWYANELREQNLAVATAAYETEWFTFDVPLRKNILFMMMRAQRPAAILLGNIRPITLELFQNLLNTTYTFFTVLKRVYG
Assay: cell-based
Conditions: HEK293; VOC concentration 10 μM; read-out: OR49b response (VUAA1-normalized response)
Listed here are compounds together with their documented activation at 10 µM.
Give just the numeric value; % need not be written.

For orientation, consider the following solved cases.
CC(=O)c1ccccc1 = 0
Cc1ccc(O)cc1 = 11
CCCCOC(=O)CC [butyl propanoate] = 0
CC1=CCC2C(C1)C2(C)C (stereo not drawn) = 0
C=C1CCC2CC1C2(C)C (stereo not drawn) = 5
CCCCCC(O)CC (stereo not drawn) = 7
CC(=O)OCC(C)C [isobutyl acetate] = 0
CCCCCC(=O)OCC [ethyl hexanoate] = 0
CCCC(O)CC (stereo not drawn) = 20
Cc1cccc(O)c1 = 13

Observed activation at 10 µM on Drosophila OR49b (Drosophila melanogaster, UniProt Q9V6H2), entry C=C1CC[C@H]2O[C@]2(C)CC[C@@H]2[C@@H]1CC2(C)C [(-)-caryophyllene oxide] , equals 0

Observed activation at 10 µM on Drosophila OR49b (Drosophila melanogaster, UniProt Q9V6H2), entry CCCCCC(C)O (stereo not drawn) , equals 0
